Kindly state Fluorescence competitive binding assay, OBP2 (raw fluorescence reading) for each of the entries shown.
tgt: UniProtKB V5T759
Sequence (V5T759 entry or part of it): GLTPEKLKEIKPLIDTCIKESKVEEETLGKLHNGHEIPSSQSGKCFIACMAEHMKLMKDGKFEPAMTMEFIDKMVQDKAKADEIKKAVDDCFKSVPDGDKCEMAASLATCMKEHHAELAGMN
experiment.summary: biochemical
Format: binding
test.conditions: ligand concentration 12 (unit not given), replicate column 2 of 3
Answers are plain numbers.

Below are worked cases with known answers.
# compound, data.value
data = [
    ("C[C@@H]1CC[C@H]2C(C)(C)[C@H]3C[C@@]12CC[C@@]3(C)O", 24959),
    ("Cc1ccc(C(C)C)cc1", 15818),
    ("C=C(C)C1CC=C(C)CC1 (single isomer, unassigned; (+)) [(+)-limonene]", 16176),
    ("c1ccc2ccccc2c1", 18134),
    ("CCCCCCCCCCCCCC", 20189),
]

Take each entry in turn and give its Fluorescence competitive binding assay, OBP2 (raw fluorescence reading).
1. CC/C=C\CCO [(Z)-3-hexenol]
2. CC1=CC[C@@H](C(C)(C)O)CC1
3. CCCCCCC=CCO
4. O=C(c1ccccc1)c1ccccc1
5. OC1CCCCC1
6. CCCCCCCC

## Result
1. 16534
2. 15826
3. 19350
4. 13209
5. 16542
6. 12327
